Target: Beta Secretase enzyme (BACE1) (Homo sapiens, UniProt P56817)
Sequence (P56817 46-501): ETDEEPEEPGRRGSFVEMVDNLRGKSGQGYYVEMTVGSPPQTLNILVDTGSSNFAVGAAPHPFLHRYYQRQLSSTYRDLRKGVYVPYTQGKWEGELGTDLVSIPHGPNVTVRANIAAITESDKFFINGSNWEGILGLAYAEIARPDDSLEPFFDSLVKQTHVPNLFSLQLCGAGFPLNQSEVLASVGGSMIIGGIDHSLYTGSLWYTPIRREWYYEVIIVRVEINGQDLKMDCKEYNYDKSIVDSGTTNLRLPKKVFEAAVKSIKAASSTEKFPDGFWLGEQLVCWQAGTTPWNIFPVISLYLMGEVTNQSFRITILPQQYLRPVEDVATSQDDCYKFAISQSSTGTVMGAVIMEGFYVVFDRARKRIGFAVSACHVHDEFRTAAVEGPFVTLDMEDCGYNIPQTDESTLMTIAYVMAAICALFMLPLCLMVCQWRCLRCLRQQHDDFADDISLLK
Experiment: In vitro enzymatic BACE FRET assay
Format: biochemical
Conditions: average IC50, enzyme assay; read-out: BACE1 FRET assay IC50
test readout: IC50 (nM)

[[record]]
molecule = "CC1(C)C(N)=N[C@](CF)(c2cc(Nc3ncc(F)c4cc(C#N)cnc34)ccc2F)CS1(=O)=O [Example 157]"
observed = 0.56


(a) CC1(C)C(N)=N[C@](C)(c2cc(NC(=O)c3ccc(C(F)(F)F)cn3)ccc2F)CS1(=O)=O [Example 342]
(b) COc1ccnc(Oc2ccc(F)c([C@]3(C)CS(=O)(=O)C(C)(C)C(N)=N3)c2)c1 [Example 287]
(c) COc1ccc(C(=O)Nc2ccc(F)c([C@]3(C)CS(=O)(=O)[C@@](C)(F)C(N)=N3)c2)nc1 [Example 318]
Incoming: Put the entries in order of IC50, starting with the largest number. The response must list the labels following the requested ordering.
Outgoing: b, c, a

----------
Molecular target: Cathepsin D (Cat D) (Homo sapiens)
Construct: Recombinant Cat D was expressed in CHO cells; made in house; host or cells: CHO cells
Sequence (P07339 65-412, species assumed): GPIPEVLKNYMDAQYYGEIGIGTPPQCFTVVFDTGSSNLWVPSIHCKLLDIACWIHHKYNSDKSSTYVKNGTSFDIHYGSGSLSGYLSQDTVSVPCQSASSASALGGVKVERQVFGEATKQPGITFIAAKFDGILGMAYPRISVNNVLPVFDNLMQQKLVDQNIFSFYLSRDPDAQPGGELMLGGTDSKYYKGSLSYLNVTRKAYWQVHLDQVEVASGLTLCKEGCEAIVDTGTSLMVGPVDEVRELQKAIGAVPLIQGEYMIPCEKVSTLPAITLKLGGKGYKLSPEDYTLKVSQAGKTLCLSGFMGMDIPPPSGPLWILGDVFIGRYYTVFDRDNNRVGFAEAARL
Test: In vitro enzymatic Cathepsin D (Cat D) FRET assay
Format: biochemical
Settings: read-out: CatD IC50
test readout: IC50 (µM)

[[record]]
molecule = "Cc1cc(Cl)cnc1C(=O)Nc1ccc(F)c([C@]23C[C@H]2S(=O)(=O)C(C)(C)C(N)=N3)c1 [Example 396]"
uom = "µM"
observed = 187

[[record]]
molecule = "CC1(C)C(N)=N[C@](C)(c2cc(Nc3nccc4nc(OCC(F)F)cnc34)ccc2F)CS1(=O)=O [Example 444]"
uom = "µM"
observed = 242

[[record]]
molecule = "CC1(C)C(N)=N[C@](C)(c2cc(Oc3ccc4ccccc4c3)ccc2F)CS1(=O)=O [Example 102]"
uom = "µM"
observed = 51.2

[[record]]
molecule = "CC1(C)C(N)=N[C@](C)(c2cc(NC(=O)c3ccc(C#N)cn3)ccc2F)CS1(=O)=O [Example 23]"
uom = "µM"
observed = 617


----------
Target: Cathepsin D (Cat D) (Homo sapiens)
Construct: Recombinant Cat D was expressed in CHO cells; made in house; host or cells: CHO cells
Assay: In vitro enzymatic Cathepsin D (Cat D) FRET assay
Format: biochemical
Conditions: read-out: CatD IC50
test readout: IC50 (µM)

Sample records with IC50:
[[record]]
molecule = "CC1(c2cc(NC(=O)c3ccc(Cl)cn3)cc(F)c2F)CS(=O)(=O)C(C)(C)C(N)=N1 (centres unmarked)"
uom = "µM"
observed = 99.8

[[record]]
molecule = "CC1(C)C(N)=N[C@](C)(c2cc(Nc3nccc4cc(Cl)cnc34)ccc2F)[C@@H](F)S1(=O)=O"
uom = "µM"
observed = 66.8

[[record]]
molecule = "C=Cc1cc(Cl)cnc1C(=O)Nc1ccc(F)c([C@]2(C)CS(=O)(=O)C(C)(C)C(N)=N2)c1"
uom = "µM"
observed = 108


(I) CC1(C)C(N)=N[C@](C)(c2cc(Nc3nccc4cc(OCC#N)cnc34)ccc2F)CS1(=O)=O
(II) CC1(C)C(N)=N[C@](C)(c2cc(N)ccc2F)[C@@H](F)S1(=O)=O
Incoming: Could you please tell me which of these two has the higher IC50: I or II ? Pick one; state its label.
Outgoing: I

(a) CC1(C)C(N)=N[C@](C)(c2cc(Oc3ncc(C(N)=O)c4sccc34)ccc2F)CS1(=O)=O
(b) Cc1cc(Cl)ccc1C(=O)Nc1ccc(F)c([C@]2(C)CS(=O)(=O)C(C)(C)C(N)=N2)c1
(c) C[C@@]1(c2cc(Br)ccc2F)CS(=O)(=O)C2(CCC2)C(N)=N1
Incoming: Put the entries in order of IC50, starting with the largest number. The response must list the labels following the requested ordering.
Outgoing: b, a, c

(I) C[C@]1(F)C(N)=N[C@](C)(c2cc(NC(=O)c3ncc(C(F)F)cc3Cl)ccc2F)CS1(=O)=O
(II) CC1(C)C(N)=N[C@](C)(c2cc(Oc3ncccn3)ccc2F)CS1(=O)=O
(III) CC1(C)C(N)=N[C@](C)(c2cc(Nc3nccc4nc(C(F)(F)F)cnc34)cnc2F)CS1(=O)=O
(IV) CC1(C)C(N)=N[C@](C)(c2cc(Oc3ccc(C#N)cc3)ccc2F)CS1(=O)=O
Incoming: Rank the items in ascending order with respect to IC50. The response must list the labels following the requested ordering.
Outgoing: IV, II, III, I
(IV: 58.7 µM, II: 222 µM, III: 457 µM, I: 979 µM)

Source listed as patent US20140107109A1.
